Data credit: ChEMBL document CHEMBL3407339

# System: Salmonella typhimurium
# procedure-summary: Mutagenicity in Salmonella typhimurium TA98 at 0.156 mg/ml after 48 hrs by AMES MPF assay in absence of Sprague-Dawley rat liver microsomal S9 fraction relative to baseline
# Type: toxicity, organism-based
# condition-summary: salmonella enterica subsp. enterica serovar typhimurium
A collection of compounds and their measured fold change (FC)
endpoint-name: fold change (FC)

> print(dat)
                                   compound     endpoint.name  result.value
1  Fc1ccc(C2CC(c3ccc(Cl)s3)=NN2c2nc(-c3ccc(Cl)cc3)cs2)cc1 (stereo unspecified)  fold change (FC)             0
2  Fc1ccc(C2CC(c3ccc(Cl)s3)=NN2c2nc(-c3ccc(C(F)(F)F)cc3)cs2)cc1 (stereo unspecified)  fold change (FC)             0
3  Fc1ccc(C2CC(c3ccc(Cl)s3)=NN2c2nc(-c3ccc(Br)cc3)cs2)cc1 (stereo unspecified)  fold change (FC)             0
4  Cc1ccc(C2=NN(c3nc(-c4ccc(C#N)cc4)cs3)C(c3ccc(F)cc3)C2)s1 (stereo unspecified)  fold change (FC)          1.78
5  Cc1ccc(C2=NN(c3nc(-c4ccc(S(C)(=O)=O)cc4)cs3)C(c3ccc(F)cc3)C2)s1 (stereo unspecified)  fold change (FC)          0.67
6  Fc1ccc(C2CC(c3ccc(Cl)s3)=NN2c2nc(-c3ccccc3)cs2)cc1 (stereo unspecified)  fold change (FC)             0
